Every entry's value here was drawn from PubChem BioAssay.

Test: inhibitors of poly I:C-induced TLR3 signaling, primary screen, cell-based, poly I:C stimulus, luciferase, 10K MLSCN set (AID 602277)
Conditions: HEK293-TLR3 RL24 IRF3 luciferase reporter, at 10 µM, stronger effect = higher value
Entry flag: Fulfilled if inhibition reaches 10%; Not fulfilled if it does not.

Examples with answers:
>>> cat("CCC(C)(C(=O)NC1CCCCC1)N(Cc1ccco1)C(=O)c1ccc2c(c1)OCO2 (configuration not stated)")
"Fulfilled"
>>> cat("Cc1ccc(-c2nnc(N3CCN(C(=O)CN4C(=O)c5ccccc5C4=O)CC3)c3ccccc23)cc1")
"Fulfilled"
>>> cat("CCOC(=O)C(CCc1nnc(N)s1)C(=O)OCC")
"Fulfilled"
>>> cat("Cc1ccc(-c2ccc(=O)n(CCC(=O)NCCN3CCCCC3C)n2)cc1 (configuration not stated)")
"Not fulfilled"
>>> cat("CCOc1cc(-c2nc(-c3ccc(C)nc3OCC)no2)cc(OCC)c1OCC")
"Not fulfilled"

Moving on to another compound below.
Lookup: Hello, I need to know if CC1(CC(=O)O)C(=O)N=C2C=CC=CN21 (configuration not stated) has measured inhibition not below 10%. Thanks!
Found: Fulfilled

---

Molecular target: Voltage-gated potassium channel subunit beta-2 (Rattus norvegicus)
Assay: KvBeta positive modulators, primary screen, biochemical, NADPH fluorescence (AID 623);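 note: fluorescence intensity change per second fitted from 20 to 320 s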
Details: Recombinant KvBeta, NADPH fluorescence decrease slope, 10 min; at 10 µM; stronger effect = lower value
measure name: NADPH fluorescence slope
Lab note: jot down the number only; don't add units.

>>> readout_value("CC1CCCN(S(=O)(=O)c2coc(C(N)=O)c2)C1 (stereo unspecified)")
"-2.8e-05"
>>> readout_value("CCOC(=O)CSc1nnc(C)c(=O)[nH]1")
"-4.6e-05"
>>> readout_value("COc1ccc(OC)c(NC(=O)C2C3CC4OC(=O)C2C4C3)c1 (stereo unspecified)")
"-5.4e-05"
>>> readout_value("CCOc1ccc(S(=O)(=O)N(C)CCO)cc1-c1nc2c(C(C)(C)C)nn(C)c2c(=O)[nH]1")
"-3.4e-05"
>>> readout_value("COc1ccccc1C(=O)N1CCN(C(=O)COc2cccc(C)c2)CC1")
"-5.4e-05"

Bench note, Voltage-gated potassium channel subunit beta-2 (Rattus norvegicus): entry Cc1cc(C)n(-c2nc(C)nc3sc4c(c23)CCC(C)C4)n1 (stereo unspecified) , its NADPH fluorescence slope = 5.5e-06

---

Test: inhibitors of E-selectin induction by TNFa, primary screen, imaging, HUVEC, immunofluorescence, MLSMR starter and 10KST1 sets (AID 487);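 note: 100% = median nuclei count of all wells on the same plate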
Details: HUVEC TNFalpha-induced E-selectin immunofluorescence imaging, at 2 µM; measured here: cell number, toxicity
Below, each entry is listed with its recorded nuclei count.
Value expressed in %; do not type the unit.

>>> readout_value("COc1cc(NC(=O)c2cccs2)cc(OC)c1")
96.7

Sure, the documented nuclei count for CN(C)c1ccc(NC(=O)c2sc(SCC(=O)Nc3nccs3)nc2N)cc1 is 179

Sure, the documented nuclei count for CCn1c(C(=O)N2CCCC(C(=O)NCCCc3ccccc3)C2)cc2sccc21 (stereo unspecified) is 104

Sure, the documented nuclei count for O=S(=O)(c1cccs1)N1CCN(C/C=C/c2ccccc2)CC1 is 94.8

Sure, the documented nuclei count for O=C(Cn1nnc(-c2ccccc2)n1)Nc1ccccc1N1CCOCC1 is 107

Sure, the documented nuclei count for O=C(CSc1nnc2c3cc(F)ccc3nc(-c3ccccc3)n12)N1CCOCC1 is 96.3
